Experiment: yeast display, Sf9 membrane polyspecificity reagent, FACS + sequencing; frameworks hold sequencing errors
valueKind: polyreactivity (PSR sort gate)

As a guide, the following entries are already answered.
{"columns": ["primarySequence", "polyreactivity (PSR sort gate)"],
 "data": [
  ["QVQLVESGGGLVQAGGSLRLSCAASGRIFSYYTMGWYRQAPGKERELVAAITSGDSTNYADSVKGRFTISRDNAKNTVYLQMNSLKPEDTAVYYCNARYSWWRSRVGSSHGPDGYWGQGTQVTVSS", "high polyreactivity"],
  ["QVQLVESGGGLVQAGGSLRLSCAASGRIFDVYAMGWYRQAPGKERELVAAITWSGTSTYYADSVKGRFTISRDNAKNTVYLQMNSLKPEDTAVYYCNALSYGRYLNYRGGMDYWGQGTQVTVSS", "high polyreactivity"],
  ["QVQLVESGGGLVQAGGSLRLSCAASGSTFFFNAMGWYRQAPGKERELVAGISSSGGSTHYADSVKGRFTISRDNAKNTVYLQMNSLKPEDTAVYYCNAQQYLTFRGTGDYWGQGTQVTVSS", "low polyreactivity"],
  ["QVQLVESGGGLVQAGGSLRLSCAASGLIFSYYAMGWYIQAPGKERVLVAAISGVGSTNYADSVKGRFTISRDNEKNTVYLQMNSLKPEDTAVYYCAARFVLRRDYGYWGQGTQVTVSS", "high polyreactivity"],
  ["QVQLVESGGGLVQAGGSLRLSCAASGSIFFYYAMGWYRQAPGKERELVAAITSSDGDTYYADSVKGRFTISRDNAKNTVYLQMYSLKPEDTAVYYCAAESGPSPPITTSSNEYWGQGTLVTVSS", "low polyreactivity"],
  ["QVQLVESGGGLVQAGGRLRLSCAASGSTFIDYAMGWYIHAPGKERELVAAITWDGSSTYYADSVKGRFTISRDNAKNTVYLQMNSLKPEDTAVYYCATDYAGQYPVDGQPIHDYWGQGTQVTVSS", "low polyreactivity"],
  ["QVQLVESGGGLVQAGGSLRLSCAASGSTFGYYAMGWYRQAPGKERELVARISGGTRTNYADSVKGRFTISRDNAKNTVYLQMNSLKPEDTAVYYCNAYYYIPFEGRGYSKMDYWGQGTQVTVSS", "high polyreactivity"],
  ["QVQLVESGGGLVQAGGSLRLSCAASGPTFSQNVMGWYRQAPGKERELVAGISSGDITDYADSVKGRFTISRDNAKNTVYLQMNSPKPEDTAVYYCTYYGKSGGYRYTYYYWGQGTQVTVSS", "high polyreactivity"]
]}

GET /values?readout=polyreactivity (PSR sort gate)&item= QVQLVESGGGLVQAGGSLRLTSAASGRIIDQNAMGWYRQAPGKERELVAAITSGGSTNYADSVKGRFTISRDNAKNTVYLQMNSLKPEDTAVYYCNSRDASRRYDYDFLERDSWGQGTQVTVSS
low polyreactivity

Another sequence to look at: QVQLVESAGGLVQAGASRRLSCAASGRTVSLYTMGWSRQSPGKESELVASITSSGSTSYADSVKGRFTISRDNAKNTVYLQMNSLKPEDTAVYYCNAAVSYPKYPYVSPGVPSYDYWGQGTQVTVSS
low polyreactivity

Another sequence to look at: QVQLQESGGGLVQASGSPRLSCAASGNIFDADIMGWYRQAPGKQCELVASITDGGSTNYADSEKGRFTISSDNAKNTVYLQKNSLKPEDTAVYYCAAISYRDIPTYFDYDSDYFYWGQGTHVTVSS
high polyreactivity

* * *

Test: yeast display, Sf9 membrane polyspecificity reagent, FACS + sequencing; frameworks hold sequencing errors
valueKind: polyreactivity (PSR sort gate)

As a guide, the following entries are already answered.
{"columns": ["primarySequence", "polyreactivity (PSR sort gate)"],
 "data": [
  ["QVQLVESGGGLVQAGGSLRLSCAASGFIFTGYTMGWYRQAPGKERELVARISSGDSTKYADSVKGRFTISRDNAKNTVYLQMNSLKPEDTAVYYCAATTGYTARWRNRYIYYYWGQGTQVTVSS", "high polyreactivity"],
  ["QVQLVESGGGLVQAGGSLSLSCAASGSIFFNNAMGWYRQAPGKERELVAAITWRDGSTNYADSVKGRFTISRDIAKNTVYLQMNSLKPEDTAVYYCNKVKEFGNVWFLPKYNYWGQGTQVTVSS", "low polyreactivity"],
  ["QVQLVESGGGLVQAGGSLRLSCAASGNIFVYYAMGWYRQAPGKERELVAAISFRGGTTYYADSVKGRFTISRDNAKNTVYLQMNSLKPEDTAVYYCAKDIFQIGYRRYDSWGQGTQVTVSS", "low polyreactivity"],
  ["LVQLVESGGGLVQAGGSLRLSCAASGRIIPPNAMGWYRQAPGTERELVATITWGVGSTYYADSVKGRFTISRDNAKNTVYLQMNSLKPEDTAVYYCYARRFRPYGFYYWGQGTQVTVSS", "high polyreactivity"]
]}

// below: polyreactivity (PSR sort gate) requested for another sequence
GET /values?readout=polyreactivity (PSR sort gate)&item= QDQLVESGGGLVQAGGSLRLSCAASGRIFGFNAMGWYRQAPGKERELVAAISWRGGSTRYADSVKGRFTISRDNAKNTVYLQMNSLKPEDTAVYYCATPYADPGTVQYAGYNYWGQGTQVTVSS
high polyreactivity

* * *

Assay: yeast display, Sf9 membrane polyspecificity reagent, FACS + sequencing; frameworks hold sequencing errors
valueKind: polyreactivity (PSR sort gate)

{"columns": ["primarySequence", "assayValue"],
 "data": [
  ["QVQLVESGGGLVQAGGSLRLSCAASGFNFQRYAMGWYRQAPGKERELVAAISVRGTRTYYADSVKGRFTISRDKAKNTVYFQMYSLKPVDTAVYYCNADWERDVQDEYWGQGTHVTVSS", "high polyreactivity"],
  ["QVQLVESGGALVQAGGSLRLSCGASGSTFHPYAMGWYRQAPGKERELVGAITWRVGSTYYADSVKGRFTISRDNAKNTVYLQMNSLKPEETAVYYCAVSYLSTLVRSRYDYWGQGTQVTVSS", "low polyreactivity"],
  ["QVQLVESCGGLVQAGGSLRLSCAASGSTFRTYAMGWYRQAPGKERELVASIDSTGSTNYADSVKGRFTISSDNAKNSVYLQMNSLKPEDTAVYDCAAETYSYPPFYAYDYWGQGTQVTVSS", "low polyreactivity"],
  ["QVQLVDSGGGLVQAGGSHRLSCAASGRIFVAYAMGWYRQAPGKERELVAGISRGGSTYYADSVKGRFTISRDNAKNTVYLQMNSLKPEDTAVYYCATDQRVRRYDYWGQGTQVTVSS", "low polyreactivity"],
  ["QVQLVESGGGLVQAGGSLRLSCAASGLIFGKYAMGWYRQAPGKERELVAAITSSGGGTYYADSVKGRFTISRDNAKNTVYLQMNSLKPEDTAVYYCATGPDPKYDYWGQGTQVTVSS", "high polyreactivity"]
]}

GET /values?readout=polyreactivity (PSR sort gate)&item= QVQLVESGGGLVQAGGSLRLSCAASGSILRYYAMGWFRQAPGKERELVAAISYSGGSTYYADSVKGRFTISRDNAKNTVYLQMNSLKPEDTAVYYCNKLYDRGYDYWGQGTQVTVSS
high polyreactivity

Another sequence to look at: QVQLVESGGGLVQAGGSLRLSCAASGRTFGYNAMGWYREAPGKERELVAAITLGGITHYADSVKGRFTISRDNAKNTVYLQMNSLKPEDTAVYYCAKRGPYYNDDEYYWGQGTQVTVSS
low polyreactivity

* * *

Assay: yeast display, Sf9 membrane polyspecificity reagent, FACS + sequencing; frameworks hold sequencing errors
valueKind: polyreactivity (PSR sort gate)

{"columns": ["primarySequence", "valueKind", "assayValue"],
 "data": [
  ["QVQLVESGGGVVQAGGSLRLSCAASGIIFDYYAMGLYRQAPGKERELVAAITSGGSTYYADSVKGRFTISRDNAKNSVYFQMKSLKAEDTAVYFCAAVYPRVRYDYWGQGTQVNVSS", "polyreactivity (PSR sort gate)", "high polyreactivity"],
  ["QVQLVESGGGLVQAGGSLRLSCAASGSIYYTNAMGWYRQAPGKERELVAAISYGGTTTYADSVKGRFTISRDNAKNTVYLQMNSLKPEDTAVYYCNADWLYYGYWGYGHIWYDYWGQGTQVTVSS", "polyreactivity (PSR sort gate)", "low polyreactivity"],
  ["QVQLVESGGGLVQAGGSLRLSCAASGSTFAPNAMGWYRQAPGKERELVAAISSGGDSTNYADYVKGRFTISRDNAKNTVYLQMNSLKPEDTAVYYCAHGYCFVAYDYWGQGTQVTVSS", "polyreactivity (PSR sort gate)", "low polyreactivity"],
  ["QVQLVETGVGLVQAGGSLRLSCAASGSTFPGYAMGWYRQAPGKERELVAAISASGGSTYYADSVKGRFTISRDIAKNTVYLQMNSLKPEDTEVYYCAKVLSRGASAHDYWGLGTQVTVSS", "polyreactivity (PSR sort gate)", "low polyreactivity"]
]}

GET /values?readout=polyreactivity (PSR sort gate)&item= QVQLVESCGGLVQAGGSLRLSCAASGSTFRFNTMGWYRQPPGKERELVAAITRGGSTNYADSVKGRFTISRDNAKNTVYLQMNSLKPEDTAVYFCAAGYCWTFDYDYWGQGTQVTVSS
low polyreactivity

Another sequence to look at: QVQLVESGGGLVQAGGSLRLSCAASGRIFDRNAMGWYRQAPGKERELVAAIDDSGGDTSYADSVKGRFTISRDTAKNTVYLQMNSLKPEDTAVYYCAAKRQYYQTGSQRSYPYDYWGQGTQVTVSS
low polyreactivity

Another sequence to look at: QVQLVESGGGLVQAGGSLRLSCAASGSTFYHYAMGWYRKAPGKERELVAAISTSGGRTYYADSVKGRFTISRDNAKNTVYLQLNSLKPEDTAVYYCAARPGSWFPSVPSYNYWGQGTQVTVSS
low polyreactivity

Another sequence to look at: QVQLVESGGGLVQAGGSLRLSCAASGRTFTGYAMGWDRQAPGKERELVAGISYRGGSTYYADSVKGRFTISRDNAKNTVYLQMNSLKQEVTAVYYCARDYSRHKGDYWGQGTQVTVSS
low polyreactivity

Another sequence to look at: QFQLVESGGCLVQAGGSLRISSASSGSTLANYAMGWYRQAPGKEREFVAAINSGGSTYYADSVKGRFTISRDIAKNTVYLQMNSLKPEDTAVYYCAARYASPRYKSKMDYWGQGTQVTVSS
high polyreactivity

Another sequence to look at: QVQLVESGGGLVQAGGSLRLSCAASGSTFVGYAMGWYRQAPGKERELVADIDSIGGSTYYADSVKGRFTISRDNAKNTVYLQMNSMKPEDTAVYYCAARRFDTALVLYDYWGQGSQVTVSS
low polyreactivity

Another sequence to look at: QVQLVESGGGLVQAGGSLRLSCAASGSIFKQYAMGWYRQAPGKERELVARITGSGGSTYYADSVKGRFTISRDNAKNTVYLQLNSLKPEDTAVYYCANKRYARSSGGYDYWGQGTQVTVSS
low polyreactivity

FYI, the data here is from the nanobody polyreactivity screen of Harvey et al. (2022).
